Test: RPL19A-GFP modulators, yeast TOR pathway, confirmation, cell-based, S. cerevisiae, flow cytometry, cherry picks, mother/daughter gates (AID 2270)
Settings: S. cerevisiae RPL19A-GFP strain, 3 h, measured here: mother cell gate, at 10 µM, stronger effect = lower value, 100 = same GFP as DMSO wells
Listed here: items and their measured GFP response vs DMSO.
A number alone suffices; assume %.

# count of solved cases: 8
* CCC(=O)N/C(N)=N/c1nc2ccccc2o1 | 84.8
* COc1ccc(C(=O)Nc2c(N)nc[nH]c2=O)cc1 | 99
* COc1ccc(N/N=C(\C#N)C(N)=O)cc1 | 83.7
* CCOC(=O)C1=C(C)N=C2SC(C(=O)OC)=CC(=O)N2C1c1ccc(F)cc1 (stereo unspecified) | 100
* COc1ccccc1NC(=O)Cn1nnc(-c2ccccc2NC(=O)c2ccco2)n1 | 96.6
* Cc1cccn2c(=O)c(/C=C(\C#N)C(=O)NCc3ccco3)c(N3CCC(C(N)=O)CC3)nc12 | 91.4
* Cc1cccc(N2C(=O)c3cccc4c(N(C)CCO)ccc(c34)C2=O)c1 | 99
* CCOc1ccc(C(=O)/C=C/c2ccccc2C(F)(F)F)cc1 | 99

IN: Return reported GFP response vs DMSO; argument: `CCOC(=O)c1cnn(-c2cc(C)nc3c(-c4ccccc4)cnn23)c1N`
OUT: 95.4

IN: GFP response vs DMSO for `Cc1noc2ncnc(Sc3ccc(Br)cc3)c12` ?
OUT: 94.7

IN: Record request: GFP response vs DMSO value, item `Cc1ccc(S(=O)(=O)N(CC(=O)Nc2cccnc2)c2ccccc2C)cc1`
OUT: 105
